- Test system: biotinyl-Phe-oxazolone
- assay comment: self-aminoacylation, catalytic enhancement (BFO) (fold over background); higher = more active; k-Seq, kA / k0A0; sequences stand for … in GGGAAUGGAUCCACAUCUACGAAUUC…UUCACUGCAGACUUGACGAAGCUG
Fewer inactive variants are shown than the library holds.
Recorded measurements of self-aminoacylation, one per entry
I only need the number, thanks.

As a guide, the following entries are already answered.
> print(dat)
                              sequence.data  measured.number
1  CUACGUGAAACAAUCGGUCUG [Fam1A.1 aminoacylation ribozyme variant]             5.84
2  UUAGUUCAAACAAUCGGUCUG [Fam1A.1 aminoacylation ribozyme variant]             4.01
3  GUUCACCUAGGUCAUCGGGUA [Fam2.2 aminoacylation ribozyme variant]              381
4  CCACACUUCAAGCUAUCGGAC [Fam1B.1 aminoacylation ribozyme variant]            0.941
5  CUACUUCAAGCAAUCGGUAUG [Fam1A.1 aminoacylation ribozyme variant]             8.16

Lab note: measured self-aminoacylation of CGACUUCAAAAAAUCGGUCUG [Fam1A.1 aminoacylation ribozyme variant] was 15.3

Quick note, self-aminoacylation for AUCCACCUAGGCCAUCGGGUG [Fam2.2 aminoacylation ribozyme variant] landed at 27.4
